Target: T1, rat RXFP1 (rat, UniProt Q6R6I6 1-758)
T1 sequence (looked up): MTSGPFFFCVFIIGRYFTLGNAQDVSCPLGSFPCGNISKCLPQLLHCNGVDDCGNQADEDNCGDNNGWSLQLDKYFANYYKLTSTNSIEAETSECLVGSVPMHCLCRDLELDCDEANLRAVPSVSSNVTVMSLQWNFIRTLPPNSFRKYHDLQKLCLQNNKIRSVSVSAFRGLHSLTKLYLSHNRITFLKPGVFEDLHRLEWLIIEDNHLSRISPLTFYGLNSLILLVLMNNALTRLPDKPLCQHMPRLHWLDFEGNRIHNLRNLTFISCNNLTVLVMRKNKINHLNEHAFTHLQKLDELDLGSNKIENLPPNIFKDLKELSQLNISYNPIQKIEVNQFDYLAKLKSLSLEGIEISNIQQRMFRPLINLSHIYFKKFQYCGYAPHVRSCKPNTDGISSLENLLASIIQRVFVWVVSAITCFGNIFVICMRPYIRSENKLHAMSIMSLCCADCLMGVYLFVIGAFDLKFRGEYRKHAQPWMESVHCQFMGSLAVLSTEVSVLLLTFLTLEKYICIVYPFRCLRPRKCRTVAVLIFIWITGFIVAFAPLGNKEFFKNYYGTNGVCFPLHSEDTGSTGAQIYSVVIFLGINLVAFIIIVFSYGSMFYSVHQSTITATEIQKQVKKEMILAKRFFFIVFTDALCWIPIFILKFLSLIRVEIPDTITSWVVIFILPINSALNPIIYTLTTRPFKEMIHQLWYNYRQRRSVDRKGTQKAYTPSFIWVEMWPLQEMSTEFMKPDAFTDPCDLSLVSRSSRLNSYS
Assay: cell-based or functional assay
MEASUREMENT LABEL: Transient HEK293 rRXFP1 cAMP EC50 (nM)
Report the figure in nM without appending any unit label.

Reported Transient HEK293 rRXFP1 cAMP EC50 for SEQ ID NO: 91 (Fc fusion) DKTHTCPPCPAPEAAGGPSVFLFPPKPKDTLMISRTPEVTCVVVDVSHEDPEVKFNWYVDGVEVHNAKTKPREEQYNSTYRVVSVLTVLHQDWLNGKEYKCKVSNKALAAPIEKTISKAKGQPREPQVYTLPPSRDELTKNQVSLTCLVKGFYPSDIAVEWESNGQPENNYKTTPPVLDSDGSFFLYSKLTVDKSRWQQGNVFSCSVLHEALHSHYTQKSLSLSPGEGGSDSWQEEVIKLCGRELVRAQIAICGKSTASDAAGADANAGARQLYSALANKCCHVGCTKRSLAQFC was 12.4
